quantity_name: melting point (°C)
Express it in °C; write the number only.

A selection of reference data follows.
compound	quantity_name	value_observed
COc1ccc(Nc2nc(NCCN)nc(NC3CCCCCC3)n2)cc1Cl	melting point	77
COc1ccc(Nc2nc(NCC3CCCO3)nc(NC3CCCCCC3)n2)cc1Cl (stereo not shown)	melting point	77
CCN1CCCC1CNc1nc(Nc2ccc(C)c(F)c2)nc(NC2CCCCCC2)n1 (stereo not shown)	melting point	78
COc1ccc(Nc2nc(NCCNC(=O)OC(C)(C)C)nc(NC3CCCCCC3)n2)cc1Cl	melting point	94
CCN1CCCC1CNc1nc(NC2CCCCCC2)nc(NC2CCC(O)CC2)n1 (stereo not shown)	melting point	92
COc1ccc(Nc2nc(NNC(=O)CCCCC3SCC4NC(=O)NC43)nc(NC3CCCCCC3)n2)cc1Cl (stereo not shown)	melting point	154
COc1ccc(Nc2nc(NC3CCCCCC3)nc(OCC3CCCO3)n2)cc1Cl (stereo not shown)	melting point	61
CCN1CCCC1CNc1nc(Nc2ccc(OCc3ccccc3)c(Cl)c2)nc(NC2CCCCCC2)n1 (stereo not shown)	melting point	64
Cc1ccc(Nc2nc(NC3CCCCCC3)nc(N(C)C3CCN(C)CC3)n2)cc1F	melting point	93

Pending compound:
Find the recorded melting point belonging to CN1CCC(N(C)c2nc(Nc3cccc(F)c3)nc(NC3CCCCCC3)n2)CC1 and report it.
86

====

- System: IL6
- assay_protocol: inhibition of TNF-induced IL6 production
- Type: cell-based
- assay_setup: given as '50% at x μM'; read-out: Inhibition of TNF-induced IL6 production: concentration giving 50% inhibition
Reported log10(IC50) values for the following compounds.
Hey, these are logged values: log10 of IC50, µM being the unit before logging.

Examples with their reported log10(IC50) follow.
compound	log10(IC50)
COc1ccc(Nc2nc(NCCN)nc(NC3CCCCCC3)n2)cc1Cl [drawing 603]	0.43
CCN1CCCC1CNc1nc(Nc2ccc(C)c(F)c2)nc(NC2CCCCCC2)n1 (stereo not drawn) [drawing 604]	0.52
COc1ccc(Nc2nc(NCCNC(=O)OC(C)(C)C)nc(NC3CCCCCC3)n2)cc1Cl [drawing 602]	1.18

Consider the compound shown here: Cc1ccc(Nc2nc(NC3CCCCCC3)nc(N(C)C3CCN(C)CC3)n2)cc1F [drawing 605] What is its recorded log10(IC50)?
0.56

Name the recorded log10(IC50) for COc1ccc(Nc2nc(NC3CCCCCC3)nc(NC3CCN(C(=O)CCCCC4SCC5NC(=O)NC54)CC3)n2)cc1Cl (stereo not drawn) [drawing 610] .
1.28

I am curious: what log10(IC50) value has been reported for CN1CCC(N(C)c2nc(Nc3cccc([N+](=O)[O-])c3)nc(NC3CCCCCC3)n2)CC1 [drawing 606] ?
0.52

Please look up its log10(IC50): CN1CCC(N(C)c2nc(Nc3cccc(F)c3)nc(NC3CCCCCC3)n2)CC1 [drawing 612]
0.51

Data request, read-out log10(IC50), for CCN1CCCC1CNc1nc(Nc2ccc(OCc3ccccc3)c(Cl)c2)nc(NC2CCCCCC2)n1 (stereo not drawn) [drawing 607]
0.04

Would you mind telling me what log10(IC50) value was observed for COc1ccc(Nc2nc(NCCCCCNC(=O)CCCCC3SCC4NC(=O)NC43)nc(NC3CCCCCC3)n2)cc1Cl (stereo not drawn) [drawing 609] ?
0.70

====

- Test system: MCP1
- assay_protocol: inhibition of TNF-induced MCP1
- Type: cell-based
- assay_setup: in vitro
quantity_name: IC50
I'd appreciate it if you wrote the number followed by its unit.

molecule	IC50
COc1ccc(Nc2nc(NC3CCCCCC3)nc(OCC3CCCN3C)n2)cc1Cl (centres unmarked) [drawing 614]	3 µM
CCN1CCCC(Oc2nc(Nc3ccc(OC)c(Cl)c3)nc(NC3CCCCCC3)n2)C1 (centres unmarked) [drawing 622]	4.2 µM
COc1ccc(Nc2nc(NC3CCCCCC3)nc(OC3CCCN(C(C)=O)C3)n2)cc1Cl (centres unmarked) [drawing 617]	4.6 µM
COc1ccc(Nc2nc(NC3CCCCCC3)nc(Oc3ccccc3C#CC(C)(C)O)n2)cc1Cl [drawing 621]	6.5 µM
COc1ccc(Nc2nc(NC3CCCCCC3)nc(OC3CCN(C)CC3)n2)cc1Cl [drawing 615]	4.3 µM

I have this molecule here, COc1ccc(Nc2nc(NC(C)C)nc(Oc3ccc(C#CC(C)(C)O)cc3)n2)cc1Cl [drawing 627] , and I need its recorded IC50.
3 µM

Entry COc1ccc(Nc2nc(NC3CCCCCC3)nc(Oc3ccc(C=O)cc3)n2)cc1Cl [drawing 623] has what IC50?
6 µM

Record request: IC50 value, item COc1ccc(Nc2nc(NC3CCCCCC3)nc(Oc3ccc(C#CC(C)(C)O)cc3)n2)cc1Cl [drawing 620]
3.7 µM

====

- Tested on: smooth muscle cells (SMC)
- assay_protocol: anti-proliferation assay (perlecan)
- Assay type: cell-based
- assay_setup: read-out: Avg IC-50
- Experimental: The activity scale used in Table 3 as follows (numbers are inclusive): “+++” represents IC50 of less than about 3 μM; “++” represents IC50 of between about 3 and about 7 μM; and “+” represents IC50 of greater than about 7 μM. In addition, compounds, to include compositions thereof, encompassed within the scope of structures Ia-XXIVa, respectively, or listed in Tables 1A and 1E may be likewise employed in this embodiment and/or aspect of the present invention. […]
quantity_name: IC50

# example entries with known answers
compound	IC50
COc1ccc(Nc2nc(NCCCCCNC(=O)CCCCC3SCC4NC(=O)NC43)nc(NC3CCCCCC3)n2)cc1Cl (stereo not drawn) [drawing 594]	2200 nM
COc1ccc(Nc2nc(NNC(=O)CCCCC3SCC4NC(=O)NC43)nc(NC3CCCCCC3)n2)cc1Cl (stereo not drawn) [drawing 596]	5000 nM

Below: the item to evaluate.
What IC50 value was documented for this compound, COc1ccc(Nc2nc(NC3CCCCCC3)nc(NC3CCN(C(=O)CCCCC4SCC5NC(=O)NC54)CC3)n2)cc1Cl (stereo not drawn) [drawing 595] ?
710 nM

====

Listing: melting point of selected compounds

Example results:
compound	value_observed
COc1ccc(Nc2nc(NC3CCCCCC3)nc(Oc3ccc(C#CC(C)(C)O)cc3)n2)cc1Cl	132 to 134 °C
COc1ccc(Nc2nc(NC3CCCCCC3)nc(Oc3ccc(C(C)=O)cc3Cl)n2)cc1Cl [Example 19]	186 to 196 °C
COc1ccc(Oc2nc(Oc3ccc(OC)c(F)c3)nc(Oc3ccc(OC)c(F)c3)n2)cc1F	> 210 °C

# get_value(readout='melting point', item= COc1ccc(Nc2nc(NC3CCCCCC3)nc(Oc3ccc(C=O)cc3)n2)cc1Cl [Example 15] )
218 to 220 °C

Look up melting point for this compound: COc1ccc(Nc2nc(NC3CCCCCC3)nc(Oc3ccccc3C#CC(C)(C)O)n2)cc1Cl [Example 12]
150 to 158 °C

Item under review: COc1ccc(Nc2nc(NC3CCCCCC3)nc(Oc3ccccc3I)n2)cc1Cl [Example 10] . Reported melting point?
206 to 208 °C
